The origin of these recorded values is patent US10231954B2.

Target: TGFBR1 (Homo sapiens)
Sequence (P36897 34-503): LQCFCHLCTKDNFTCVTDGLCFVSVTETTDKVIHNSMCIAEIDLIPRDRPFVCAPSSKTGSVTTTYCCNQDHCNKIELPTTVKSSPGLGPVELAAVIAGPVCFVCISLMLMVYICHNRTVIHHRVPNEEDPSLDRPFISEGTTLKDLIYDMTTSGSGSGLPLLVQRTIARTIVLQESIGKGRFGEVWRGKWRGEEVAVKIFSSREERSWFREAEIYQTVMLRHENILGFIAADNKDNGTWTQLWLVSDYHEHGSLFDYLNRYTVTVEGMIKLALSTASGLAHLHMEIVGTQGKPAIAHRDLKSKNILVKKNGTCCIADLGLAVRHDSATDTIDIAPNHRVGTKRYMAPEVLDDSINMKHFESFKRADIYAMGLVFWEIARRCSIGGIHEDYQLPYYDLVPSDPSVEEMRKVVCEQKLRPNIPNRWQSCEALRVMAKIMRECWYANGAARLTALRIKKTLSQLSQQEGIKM
Experiment: Kinase profiling TGFBR1
Type: biochemical
Details: 100 micromolar inhibitor concentration; 100 is no change
experimental-endpoint: residual kinase activity, TGFBR1
Give bare numbers.

[[record]]
compound = "O=C(Nc1nc2ccc(O)cc2s1)c1ccccc1 [Compound 03-60]"
assay_result = 93


For every item in the list below, what is its measured residual kinase activity, TGFBR1?
1. O=C(Nc1nc2ccc(O)cc2s1)c1cccnc1 [Compound 08-44]
2. O=C(Nc1nc2cc(O)ccc2s1)c1ccccn1 [Compound 03-13]
3. O=C(Nc1nc2cc(O)ccc2s1)c1cccnc1 [Compound 03-33]
4. O=C(Nc1nc2ccc(O)cc2s1)c1ccccn1 [Compound 03-12]

1: 103; 2: 109; 3: 88; 4: 117

* * *

system: AMPK (hum); test: Kinase profiling AMPK (hum); assay type: biochemical, human; conditions: 100 micromolar inhibitor concentration; 100 is no change
# cutoff 70 applies to residual kinase activity, AMPK (hum); >= gives yes, < gives no

Solved entries:
[[record]]
chem_smiles = "CC(=O)Nc1nc2cc(F)ccc2s1"
label = "yes"

[[record]]
chem_smiles = "COc1ccc2nc(NC(=O)c3ccccc3)sc2c1"
label = "yes"

[[record]]
chem_smiles = "O=C(Nc1nc2cc(O)ccc2s1)c1ccccc1"
label = "no"

[[record]]
chem_smiles = "O=C(Nc1nc2ccc(O)cc2s1)c1ccccc1"
label = "no"

[[record]]
chem_smiles = "O=C(Nc1nc2cc(O)ccc2s1)c1ccncc1"
label = "yes"


Is reported residual kinase activity, AMPK (hum) greater than or equal to 70 here: `COc1ccc2sc(NC(=O)c3cccc(C(N)=O)c3)nc2c1`
yes

Is reported residual kinase activity, AMPK (hum) greater than or equal to 70 here: `O=C(Nc1nc2ccc(C(F)(F)F)cc2s1)c1ccccc1`
yes

* * *

Exercise: state measured residual kinase activity, PAK2 for each of the compounds provided.
molecular target: PAK2 (Homo sapiens); assay: Kinase profiling PAK2; type: biochemical; conditions: 100 micromolar inhibitor concentration; 100 is no change
Sequence (Q13177 whole entry, species assumed): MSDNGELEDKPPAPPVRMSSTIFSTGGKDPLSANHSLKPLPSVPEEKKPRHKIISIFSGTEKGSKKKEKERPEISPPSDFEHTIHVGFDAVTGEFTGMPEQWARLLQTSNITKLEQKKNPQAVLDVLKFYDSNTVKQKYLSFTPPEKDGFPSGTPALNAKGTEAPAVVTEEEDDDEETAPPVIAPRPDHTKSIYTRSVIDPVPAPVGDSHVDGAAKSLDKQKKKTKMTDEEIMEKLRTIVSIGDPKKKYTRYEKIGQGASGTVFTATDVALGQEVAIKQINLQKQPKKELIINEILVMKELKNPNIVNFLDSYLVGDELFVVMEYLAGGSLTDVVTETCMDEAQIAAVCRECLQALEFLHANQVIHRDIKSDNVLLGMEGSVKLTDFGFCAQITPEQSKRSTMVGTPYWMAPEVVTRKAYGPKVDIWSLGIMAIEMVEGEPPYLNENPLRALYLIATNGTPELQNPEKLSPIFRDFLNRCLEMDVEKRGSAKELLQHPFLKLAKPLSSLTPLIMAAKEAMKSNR
Give bare numbers.

Observe how each entry below is paired with its result.
[[record]]
compound = "O=C(Nc1nc2cc(O)ccc2s1)c1ccccn1 [Compound 03-13]"
test_system = "PAK2 (Homo sapiens)"
experimental_endpoint = "residual kinase activity, PAK2"
assay_result = 119

[[record]]
compound = "CC(=O)Nc1nc2ccccc2s1 [Compound 03-32]"
test_system = "PAK2 (Homo sapiens)"
experimental_endpoint = "residual kinase activity, PAK2"
assay_result = 90


For every item in the list below, what is its measured residual kinase activity, PAK2?
1. O=C(Nc1nc2ccc(O)cc2s1)c1ccncc1 [Compound 08-42]
2. O=C(Nc1nc2ccc(O)cc2s1)c1ccccn1 [Compound 03-12]
3. O=C(Nc1nc2ccc(O)cc2s1)c1ccccc1 [Compound 03-60]
4. CC(=O)Nc1nc2cc(C)ccc2s1 [Compound 03-76]

1: 108; 2: 104; 3: 94; 4: 102
